Data provenance is patent US4943576A.

The following compounds are shown together with reported inhibition at 3 µM values.
System: sorbitol accumulation in erythrocytes
Assay: In vitro inhibition of sorbitol accumulation, erythrocytes (tissue of normal rats)
Assay type: cell-based
Conditions: Rattus norvegicus, Erythrocyte, 3 μmol/l
measurementKind: inhibition at 3 µM (%)

>>> recordedmeasurement("COc1cc2ncc(C3(C)NC(=O)NC3=O)nc2cc1OC (centres unmarked)")
-26
>>> recordedmeasurement("Cc1cc2nc(C)c(C3(C)NC(=O)NC3=O)nc2cc1C (centres unmarked) [Example 20, hydrate]")
-29
>>> recordedmeasurement("CC1(c2cnc3ccccc3n2)NC(=O)NC1=O (centres unmarked)")
-10
>>> recordedmeasurement("Cc1nc2ccccc2nc1C1(C)NC(=O)NC1=O (centres unmarked) [Example 23]")
-21
>>> recordedmeasurement("Cc1nc2ccccc2nc1C1(C)NC(=O)NC1=O (single isomer, unassigned; (+)) [Example 33]")
-26
